# TARGET: Anti-CD28 Fab (SEQ ID NOs: 696, 697) (biotinylated (site not given))
# Sequence (VH, as listed by the source, chain 1 of 2): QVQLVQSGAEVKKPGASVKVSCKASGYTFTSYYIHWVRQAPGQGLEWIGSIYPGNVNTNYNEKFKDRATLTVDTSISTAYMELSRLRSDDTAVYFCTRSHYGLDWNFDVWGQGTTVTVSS
# Sequence (VL, as listed by the source, chain 2 of 2): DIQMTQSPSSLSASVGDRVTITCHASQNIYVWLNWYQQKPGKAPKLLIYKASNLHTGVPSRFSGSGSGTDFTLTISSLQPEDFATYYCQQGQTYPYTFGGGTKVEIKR
# ASSAY COMMENT: phage binding ELISA on captured anti-CD28 Fab; competitor: CD28 antigen added to the wells before the phage
Where no end group is shown, it is not given here.
PARAMETER: Anti-CD28 Fab signal in the presence of CD28

TCAAGATYAWPECL [Phage-1400]
0.11
MCAEFFNYPWPLCL (cysteine pairing not given here; also: fused to phage pIII protein) [Phage-1393]
0.07
TCSAGAYYTWPYCF [Phage-1395]
0.08
YCAAGATYPWPLCL [Phage-1399]
0.08
WCKPGAPYKWPPCF [Phage-1389]
0.07
SCSAGAMYTWPTCL [Phage-1397]
0.06
TCAAGAMYTWPLCF [Phage-1390]
0.09
